Tested on: cells, GFP-channel autofluorescence, high-content imaging
testName: cell-permeable autofluorescent compounds in GFP channel, dose response, artefact control, imaging, high-content imaging (AID 2124)
Results filed as inconclusive are left out. Calls of active or inactive are those of the source. The rule behind the calls is not given here; tested in MIN6 cells.
Mark one answer only. Choices: yes (active), no (inactive)

INSERT INTO assay_data (molecule, measuredon, cat) VALUES
  ('N#C/C(=C\c1ccc(N2CCOCC2)o1)C(=O)NCCc1ccccc1', 'cells, GFP-channel autofluorescence, high-content imaging', 'yes'),
  ('CCN(CC)c1ccc(/C=C(/C#N)C(=O)NC(C)C)o1', 'cells, GFP-channel autofluorescence, high-content imaging', 'no'),
  ('COc1cc(N2CCCC2)c(OC)cc1/C=C(/C#N)c1cccc(F)c1', 'cells, GFP-channel autofluorescence, high-content imaging', 'yes');

Request: Record lookup: outcome of this test for CN1CC=C2C(C#N)=C(N)C(C#N)(C#N)C(c3cccc(Cl)c3Cl)C2C1 (centres undefined) ?
Result: no

Request: What do you have for Nc1c(C(=O)Nc2nc3ccccc3s2)sc2nc(-c3cccs3)ccc12 ?
Result: yes

Request: What do you have for COc1cccc(C2C3CN(C)CC=C3C(C#N)=C(N)C2(C#N)C#N)c1OC (centres undefined) ?
Result: yes

Request: What do you have for O=C1c2cccc3c(N4CCCCC4)ccc(c23)C(=O)N1c1ccccc1O ?
Result: no

Request: What do you have for Cc1nonc1NC(=O)CSc1nc2c(C)cccc2cc1C#N ?
Result: yes

Request: What do you have for COCCN1C(=O)/C(=C/c2ccc(N3CCCC3)cc2)SC1=S ?
Result: yes
